assay: RPMI8226 myeloma cell viability, profiling panel, resazurin fluorescence, basal, 24 h, PK04 Diversity Set (AID 1180); details: higher = more signal;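 also: RPMI8826 multiple myeloma cell line at 5000 cells per well; test concentration not given here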
Overview of recorded z-score for various compounds
Enter the number alone.

Use these answered entries as a reference point.
O=C1[C@H]2[C@H]3[C@H](O)[C@H](O)CC(=NOC[C@@H](O)COCc4ccco4)[C@@H]3CC[C@H]2C(=O)N1c1cccc(Oc2ccccc2)c1 | 0.0789
CC(C)=NO[C@H](C)c1cn([C@@H]2COC[C@H]2O)nn1 | -0.469
COC(=O)[C@H](CCSC)NC(=O)CC=C[C@@H](C)CO | 0.475
Cc1ccc2[nH]c3nc(CCCn4ccnc4-c4ccccc4)nnc3c2c1 | -0.976

Asked: Entry under review: `C[C@H]1CC[C@@H](C(=O)O)N[C@@H]1c1ccc(C#Cc2ccccc2)cc1` . Reported z-score?
Given back: 0.0569

----------
Readings of z-score for the listed compounds
assay: adipocyte viability effects, profiling panel, cell-based, 3T3-L1 adipocytes, calcein-AM fluorescence, 48 h, basal (AID 1163); details: 3T3-L1 adipocytes viability, higher = more signal; also: test concentration not given here
Answer with a number only.

# annotated cases, reported z-score shown
CC(CCC(=O)OC[C@H]1O[C@H](C#Cc2ccccc2)C=C[C@@H]1Oc1ccc(C)cc1)=NOC(C)CN1CCCCc2nc(C)c(C)cc21 (stereo partly specified) | -0.239
O=C(NN=C1C[C@@H](O)[C@@H](O)[C@@H]2[C@@H]3C(=O)N(Cc4ccc5c(c4)OCO5)C(=O)[C@@H]3CC[C@@H]12)OCc1ccccc1 | 0.911
C[C@@H]1CC[C@@H](C(=O)O)N[C@H]1c1cccc(N2CCOCC2)c1 | -0.219
CC(C)=NO[C@H](C)c1cn([C@@H]2COC[C@H]2O)nn1 | -0.573

Asked: Would you kindly share the measured z-score for `CO[C@H]1COC(=O)CC=C[C@H](C)[C@H](OC)COC(=O)[C@@H](C)NC(=O)CC=C[C@@H]1C` ?
Given back: 0.269

Asked: Same for `COC(=O)CC=C[C@@H](C)[C@@H](C=NOC[C@@H](O)COCc1ccco1)OC`
Given back: -0.921

----------
tested on: Lefty1; assay: Lefty1 binders on small-molecule microarrays, primary screen, biochemical, small-molecule microarray, 635/667 nm fluorescence (AID 1139); details: small-molecule microarray binding, fluorescence 635/667; higher = more signal
Label rule met for high-side composite z-score (at or above 0.5) and rule not met for low-side composite z-score (below it).

Illustrative cases are given below, each with its answer.
CCc1cc2c(nc1CC)CCN(CCC(C)=NOC(C)CN1CCCCc3nc(C)c(C)cc31)C2 (centres undefined) | rule met
CO[C@@H](C1CCCCC1)[C@@H](C)[C@H](OCc1cccc(Br)c1)[C@@H](C)CO | rule not met
COC(=O)[C@H](CCSC)NC(=O)CC=C[C@@H](C)CO | rule met
O=C1[C@H]2[C@H]3[C@H](O)[C@H](O)CC(=NOCc4ccccc4)[C@H]3CC[C@H]2C(=O)N1C1CCCCC1 | rule not met
COC(=O)[C@H](C)NC(=O)CCC1CC(OC(=O)NCc2cccc3ccccc23)CC2(CCCC(COC(=O)NCc3cccc(C(F)(F)F)c3)O2)O1 (some centres undefined) | rule met
Cc1ccc(S(=O)(=O)N[C@@H]2COC(=O)CC=C[C@@H](C)[C@H](NS(=O)(=O)c3ccc(C)cc3)COC(=O)[C@H](C)NC(=O)CC=C[C@H]2C)cc1 | rule met
COC(=O)CC=C[C@@H](C)[C@@H](C=NOC(C)CN1CCCCc2nc(C)c(C)cc21)NS(=O)(=O)c1ccc(C)cc1 (some centres undefined) | rule not met
CC(C)=NO[C@@H](C)c1cn([C@H](CO)Cc2ccccc2)nn1 | rule met

Let's switch to this compound now.
Asked: Assess whether reported composite z-score for COC(=O)[C@H](C)NC(=O)CCC1CC(OC(=O)NCc2cccc3ccccc23)CC2(CCCC(COC(=O)NCCc3ccccc3OC)O2)O1 (some centres undefined) sits at 0.5 or higher.
Given back: rule met
